# assay.method.text: Nucleoside triphosphate concentrations in dog PBMC after oral administration
# Type: in vivo
# measurement.context: oral administration of 3 mg/Kg
Provide the recorded NTP Cmax for the entries that follow.
Give the value, in units of fmol/3 million cells, as a plain number.

## Task Given CCOc1nc(N)nc2c1ncn2[C@@H]1O[C@@H]2CO[P@@](=O)(N[C@H](C)C(=O)OC(C)C)O[C@H]2[C@@]1(C)F [Example 6] , state its recorded NTP Cmax.
## Result 777

## Task Record request: NTP Cmax value, item CCOc1nc(N)nc2c1ncn2[C@@H]1O[C@@H]2CO[P@](=O)(N[C@@H](C)C(=O)OC)O[C@H]2[C@@]1(C)F [Example 3]
## Result 662

## Task Field request: NTP Cmax | item: CCOC(=O)[C@H](C)N[P@@]1(=O)OC[C@H]2O[C@@H](n3cnc4c(OCC)nc(N)nc43)[C@](C)(F)[C@@H]2O1 [Example 1]
## Result 2331

## Task Entry CCOc1nc(N)nc2c1ncn2[C@@H]1O[C@@H]2CO[P@@](=O)(N[C@@H](C)C(=O)OC(C)C)O[C@H]2[C@@]1(C)F [Example 2] has what NTP Cmax?
## Result 618

====

# assay.method.text: Liver S9 stability determination
# Type: in vitro ADME
# measurement.context: pooled liver S9 fraction; human liver S9 fraction, 1 μM compound, 37° C., up to 120 mins; read-out: liver S9 t1/2
Kindly state half-life at 1 μM for each of the entries shown.
Give just the number in h; leave the unit off.

## Task Record request: half-life at 1 μM value, item CCOC(=O)[C@H](C)N[P@@]1(=O)OC[C@H]2O[C@@H](n3cnc4c(OCC)nc(N)nc43)[C@](C)(F)[C@@H]2O1 [Example 1]
## Result 1.27

## Task Could you share which half-life at 1 μM value was measured for CCOc1nc(N)nc2c1ncn2[C@@H]1O[C@@H]2CO[P@@](=O)(N[C@@H](C)C(=O)OC(C)C)O[C@H]2[C@@]1(C)F [Example 2] ?
## Result 0.6

## Task What does the record list as half-life at 1 μM for CCOc1nc(N)nc2c1ncn2[C@@H]1O[C@@H]2CO[P@](=O)(NCC(=O)OC(C)C)O[C@H]2[C@@]1(C)F [Example 8] ?
## Result 0.958

## Task State the recorded half-life at 1 μM for this entry: CCOC(=O)[C@@H](N[P@]1(=O)OC[C@H]2O[C@@H](n3cnc4c(OCC)nc(N)nc43)[C@](C)(F)[C@@H]2O1)C(C)C [Example 11]
## Result 1.37

====

# assay.method.text: CCK8 cytotoxicity assay in THP-1 cells
# Assay type: cell-based
# measurement.context: human, CCK-8
measure: CC50 at 96 h

## Task State the recorded CC50 at 96 h for this entry: CCOC(=O)[C@@H](N[P@]1(=O)OC[C@H]2O[C@@H](n3cnc4c(OCC)nc(N)nc43)[C@](C)(F)[C@@H]2O1)C(C)C
## Result > 50 µM

## Task Form field: reported CC50 at 96 h of CCCOc1nc(N)nc2c1ncn2[C@@H]1O[C@@H]2CO[P@](=O)(N[C@@H](C)C(=O)OC)O[C@H]2[C@@]1(C)F
## Result > 50 µM

## Task State the recorded CC50 at 96 h for this entry: COC(=O)[C@H](C)N[P@@]1(=O)OC[C@H]2O[C@@H](n3cnc4c(OC(C)C)nc(N)nc43)[C@](C)(F)[C@@H]2O1
## Result > 50 µM

## Task I would be grateful if you could share the reported CC50 at 96 h for CCOc1nc(N)nc2c1ncn2[C@@H]1O[C@@H]2CO[P@](=O)(N[C@@H](C)C(=O)OC)O[C@H]2[C@@]1(C)F .
## Result > 50 µM

## Task If you can, please state the reported CC50 at 96 h value of CCOc1nc(N)nc2c1ncn2[C@@H]1O[C@@H]2CO[P@@](=O)(N[C@@H](C)C(=O)OC(C)C)O[C@H]2[C@@]1(C)F .
## Result 34 µM

The measurements presented in this section are drawn from patent US20140205566A1.
